measuredOn: SMARCA2-HiBiT HeLa cells (protein which is expressed from the SMARCA2 gene) (Homo sapiens, UniProt P51531)
Construct: protein which is expressed from the SMARCA2 and SMARCA4 genes; host or cells: HeLa (SMARCA2-HiBiT engineered line)
Sequence (P51531 whole entry): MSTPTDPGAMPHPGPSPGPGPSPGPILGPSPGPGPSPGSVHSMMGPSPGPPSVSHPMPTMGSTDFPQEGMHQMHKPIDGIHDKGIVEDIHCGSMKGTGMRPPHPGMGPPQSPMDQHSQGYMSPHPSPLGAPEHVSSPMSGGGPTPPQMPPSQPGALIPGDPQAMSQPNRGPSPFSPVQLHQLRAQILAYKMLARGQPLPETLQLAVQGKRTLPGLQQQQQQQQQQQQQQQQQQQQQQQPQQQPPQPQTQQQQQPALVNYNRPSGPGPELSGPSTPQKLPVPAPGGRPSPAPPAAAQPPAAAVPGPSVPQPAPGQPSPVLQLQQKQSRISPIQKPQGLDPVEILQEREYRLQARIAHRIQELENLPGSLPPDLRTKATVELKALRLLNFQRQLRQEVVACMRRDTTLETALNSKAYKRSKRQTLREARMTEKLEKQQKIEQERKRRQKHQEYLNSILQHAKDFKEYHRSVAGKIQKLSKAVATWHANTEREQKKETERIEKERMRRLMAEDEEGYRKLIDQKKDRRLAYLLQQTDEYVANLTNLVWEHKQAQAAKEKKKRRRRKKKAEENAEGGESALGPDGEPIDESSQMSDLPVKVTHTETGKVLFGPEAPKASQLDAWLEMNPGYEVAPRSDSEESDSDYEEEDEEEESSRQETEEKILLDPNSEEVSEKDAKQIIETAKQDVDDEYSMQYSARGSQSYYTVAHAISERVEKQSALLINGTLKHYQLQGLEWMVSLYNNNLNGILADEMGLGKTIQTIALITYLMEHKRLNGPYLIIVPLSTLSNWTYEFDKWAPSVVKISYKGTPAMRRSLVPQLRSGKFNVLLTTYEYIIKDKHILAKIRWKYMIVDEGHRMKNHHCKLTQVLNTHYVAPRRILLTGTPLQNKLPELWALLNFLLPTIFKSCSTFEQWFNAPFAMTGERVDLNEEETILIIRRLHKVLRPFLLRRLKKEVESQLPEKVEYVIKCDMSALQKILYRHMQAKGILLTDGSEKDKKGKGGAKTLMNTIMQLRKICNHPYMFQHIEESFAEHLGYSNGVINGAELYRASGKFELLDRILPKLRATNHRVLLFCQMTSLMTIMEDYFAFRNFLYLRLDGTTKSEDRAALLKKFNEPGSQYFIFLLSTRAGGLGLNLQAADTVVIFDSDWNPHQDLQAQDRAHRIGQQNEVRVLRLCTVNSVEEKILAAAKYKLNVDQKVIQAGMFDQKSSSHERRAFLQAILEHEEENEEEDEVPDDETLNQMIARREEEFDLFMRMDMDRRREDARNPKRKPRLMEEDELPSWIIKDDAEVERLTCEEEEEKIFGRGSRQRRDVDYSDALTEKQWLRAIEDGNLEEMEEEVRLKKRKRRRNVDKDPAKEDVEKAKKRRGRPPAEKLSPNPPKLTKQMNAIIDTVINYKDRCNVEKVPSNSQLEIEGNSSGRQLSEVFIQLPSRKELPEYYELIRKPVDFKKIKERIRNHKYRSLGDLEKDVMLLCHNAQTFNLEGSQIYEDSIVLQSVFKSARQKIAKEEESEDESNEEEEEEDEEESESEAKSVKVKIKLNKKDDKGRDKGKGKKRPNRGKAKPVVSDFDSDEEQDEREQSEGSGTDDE
assayProcedure: SMARCA2 degradation assay (HiBiT-fusion HeLa cell line, 24 h, luminescence)
Type: cell-based
conditionSummary: @ 1 μM
measuredProperty: SMARCA2 % Degradation @ 1 μM

>>> valuemeasured("C[C@@H]1CCN(c2cc(-c3ccccc3O)nnc2N)CCN1c1ccnc(/C=C/CN(C)C)n1")
"+++ (+++=>70%)"
>>> valuemeasured("Nc1nnc(-c2ccccc2O)cc1N1CCCN(c2ccnc(C#CC34CCCN3CCC4)n2)CC1")
"+++ (+++=>70%)"
